The origin of these recorded values is the NIST ThermoML archive (doi:10.1016/j.jct.2019.03.014).

Kindly state surface tension liquid-gas for each of the entries shown.
# ASSAY SUMMARY: xn = mol fraction of the nth substance listed
# TEST PARAMETERS: 293.2 K, Ring tensiometer, x2 = 0.3
Number in mN/m, nothing else.

Data request: Entry under review: OCC(O)CO [glycerol] + CCCO . Reported surface tension liquid-gas?
Data returned: 30.1

Data request: Returns the measured surface tension liquid-gas for the input compound. Input: OCC(O)CO [glycerol] + CC(C)O
Data returned: 28.8

Data request: Can you look up the measured surface tension liquid-gas of OCC(O)CO [glycerol] + CCCCO for me?
Data returned: 26.4

Data request: Which surface tension liquid-gas value is on record for OCC(O)CO [glycerol] + CCO ?
Data returned: 36.1

* * *

For each of the compounds below, state its surface tension liquid-gas.
# ASSAY SUMMARY: xn = mol fraction of the nth substance listed
# TEST PARAMETERS: 313.2 K, Ring tensiometer, x2 = 0.2
Answer format: numeric, mN/m implied, no suffix.

Data request: # surface tension liquid-gas lookup, item OCC(O)CO [glycerol] + CC(C)O
Data returned: 33.6

Data request: Find the recorded surface tension liquid-gas belonging to OCC(O)CO [glycerol] + CCO and report it.
Data returned: 41.1

Data request: I am curious: what surface tension liquid-gas value has been reported for OCC(O)CO [glycerol] + CCCO ?
Data returned: 32.8

Data request: Field request: surface tension liquid-gas | item: OCC(O)CO [glycerol] + CCCCO
Data returned: 27.3

* * *

# ASSAY SUMMARY: xn = mol fraction of the nth substance listed
# TEST PARAMETERS: 313.2 K, Ring tensiometer, x2 = 0.1
PARAMETER MEASURED: surface tension liquid-gas (mN/m)
Give the number; mN/m is assumed, so skip it.

Data request: Data request, read-out surface tension liquid-gas, for OCC(O)CO [glycerol] + CC(C)O
Data returned: 44.4

Data request: Which surface tension liquid-gas value is on record for OCC(O)CO [glycerol] + CCCCO ?
Data returned: 32.8

Data request: Using the record for OCC(O)CO [glycerol] + CCCO , report its surface tension liquid-gas.
Data returned: 41.2

Data request: Give its surface tension liquid-gas value. Item: OCC(O)CO [glycerol] + CCO
Data returned: 52

* * *

For each record, write down the corresponding surface tension liquid-gas.
# ASSAY SUMMARY: xn = mol fraction of the nth substance listed
# TEST PARAMETERS: 333.2 K, Ring tensiometer, x2 = 0.4
Just the number in mN/m, nothing appended.

Data request: Any idea what surface tension liquid-gas was measured for OCC(O)CO [glycerol] + CCO ?
Data returned: 30.6

Data request: # query: surface tension liquid-gas of entry OCC(O)CO [glycerol] + CCCO
Data returned: 26.6

Data request: # get_value(readout='surface tension liquid-gas', item= OCC(O)CO [glycerol] + CC(C)O )
Data returned: 25

Data request: Recorded surface tension liquid-gas of OCC(O)CO [glycerol] + CCCCO , please.
Data returned: 24.8

* * *

# ASSAY SUMMARY: xn = mol fraction of the nth substance listed
# TEST PARAMETERS: 293.2 K, Ring tensiometer, x2 = 0.9
PARAMETER MEASURED: surface tension liquid-gas (mN/m)
# unit: mN/m | format: bare number

Data request: Can you share its surface tension liquid-gas? I mean this compound: OCC(O)CO [glycerol] + CC(C)O
Data returned: 21.9

Data request: Looking for the measured surface tension liquid-gas of OCC(O)CO [glycerol] + CCCCO , can you help?
Data returned: 24.8

Data request: Fill in the blank: the reported surface tension liquid-gas of OCC(O)CO [glycerol] + CCCO is ____.
Data returned: 24.7

Data request: Suppose we examine the compound OCC(O)CO [glycerol] + CCO ; what surface tension liquid-gas value has been reported?
Data returned: 23.7

* * *

Record form. Attribute: surface tension liquid-gas. Fill in for each entry.
# ASSAY SUMMARY: xn = mol fraction of the nth substance listed
# TEST PARAMETERS: 313.2 K, Ring tensiometer, x2 = 0.6
Expressed in mN/m, but write only the number.

Data request: Tell me the measured surface tension liquid-gas of OCC(O)CO [glycerol] + CC(C)O , please.
Data returned: 23.7

Data request: State the recorded surface tension liquid-gas for this entry: OCC(O)CO [glycerol] + CCCCO
Data returned: 25.1

Data request: Value lookup for surface tension liquid-gas; key = OCC(O)CO [glycerol] + CCCO
Data returned: 25.7

Data request: Give the measured surface tension liquid-gas of OCC(O)CO [glycerol] + CCO .
Data returned: 26.7

* * *

# TEST PARAMETERS: 313.2 K, Ring tensiometer
PARAMETER MEASURED: surface tension liquid-gas (mN/m)
Give your result in mN/m as a bare value.

Data request: Which surface tension liquid-gas is listed for OCC(O)CO [glycerol] ?
Data returned: 62

Data request: Endpoint output: surface tension liquid-gas of CC(C)O [propan-2-ol] . Value?
Data returned: 19.7

Data request: Consider the compound CCO [ethanol] and give its measured surface tension liquid-gas.
Data returned: 20.6

Data request: Name the recorded surface tension liquid-gas for CCCO [propan-1-ol] .
Data returned: 22.1

Data request: // lookup surface tension liquid-gas for CCCCO [butan-1-ol]
Data returned: 22.8

* * *

# TEST PARAMETERS: 323.2 K, Ring tensiometer
Entry flag: condition met if surface tension liquid-gas reaches 20 mN/m; condition not met if it does not.

Data request: Hi team, for CCCCO , is the recorded surface tension liquid-gas at or above 20 mN/m?
Data returned: condition met

Data request: Textbook exercise: given the entry CC(C)O , state whether its surface tension liquid-gas is greater than or equal to 20 mN/m.
Data returned: condition not met

Data request: Is reported surface tension liquid-gas greater than or equal to 20 mN/m here: OCC(O)CO
Data returned: condition met

Data request: I'd appreciate it if you could say whether CCCO has surface tension liquid-gas at least equal to 20 mN/m.
Data returned: condition met

* * *

# ASSAY SUMMARY: xn = mol fraction of the nth substance listed
# TEST PARAMETERS: 303.2 K, Ring tensiometer, x2 = 0.8
For each of the compounds below, state its surface tension liquid-gas.
The reply should contain only the number, in mN/m.

Data request: # query: surface tension liquid-gas of entry OCC(O)CO [glycerol] + CCCO
Data returned: 24.8

Data request: What value of surface tension liquid-gas has been reported for the following compound? OCC(O)CO [glycerol] + CC(C)O
Data returned: 22.3

Data request: # lookup: surface tension liquid-gas of OCC(O)CO [glycerol] + CCCCO
Data returned: 24.8

Data request: Can you look up the measured surface tension liquid-gas of OCC(O)CO [glycerol] + CCO for me?
Data returned: 24.2

* * *

# ASSAY SUMMARY: xn = mol fraction of the nth substance listed
# TEST PARAMETERS: 313.2 K, Ring tensiometer, x2 = 0.4
Exercise: for every item that follows, state its recorded surface tension liquid-gas.
Numeric answer only, unit mN/m assumed.

Data request: Consider the compound shown here: OCC(O)CO [glycerol] + CCCCO What is its recorded surface tension liquid-gas?
Data returned: 25.8

Data request: For OCC(O)CO [glycerol] + CC(C)O , what is its reported surface tension liquid-gas?
Data returned: 25.8

Data request: Quick check: surface tension liquid-gas of OCC(O)CO [glycerol] + CCO ?
Data returned: 31.2

Data request: State the recorded surface tension liquid-gas for this entry: OCC(O)CO [glycerol] + CCCO
Data returned: 27.7

* * *

# ASSAY SUMMARY: xn = mol fraction of the nth substance listed
# TEST PARAMETERS: 323.2 K, Ring tensiometer, x2 = 0.4
Please go through the items and note down their surface tension liquid-gas.
Kindly provide the numeric value in mN/m only, without the unit symbol.

Data request: I have this molecule here, OCC(O)CO [glycerol] + CCO , and I need its recorded surface tension liquid-gas.
Data returned: 30.9

Data request: Any idea what surface tension liquid-gas was measured for OCC(O)CO [glycerol] + CC(C)O ?
Data returned: 25.5

Data request: Item OCC(O)CO [glycerol] + CCCCO has what recorded surface tension liquid-gas?
Data returned: 25.2

Data request: Form field: reported surface tension liquid-gas of OCC(O)CO [glycerol] + CCCO
Data returned: 27.2

* * *

# ASSAY SUMMARY: xn = mol fraction of the nth substance listed
# TEST PARAMETERS: 323.2 K, Ring tensiometer, x2 = 0.5
Kindly supply the reported surface tension liquid-gas values for the records listed here.
A number alone suffices; assume mN/m.

Data request: Given OCC(O)CO [glycerol] + CCCO , state its recorded surface tension liquid-gas.
Data returned: 26

Data request: # lookup: surface tension liquid-gas of OCC(O)CO [glycerol] + CC(C)O
Data returned: 24.1

Data request: GET /values?readout=surface tension liquid-gas&item= OCC(O)CO [glycerol] + CCO
Data returned: 27.7

Data request: Which surface tension liquid-gas value is on record for OCC(O)CO [glycerol] + CCCCO ?
Data returned: 24.7
